Sourced from the kinase profiling compilation of Christmann-Franck et al. (2016)

test target: WNK3 (human) (UniProt Q9BYP7)
Sequence (Q9BYP7 whole entry, looked up): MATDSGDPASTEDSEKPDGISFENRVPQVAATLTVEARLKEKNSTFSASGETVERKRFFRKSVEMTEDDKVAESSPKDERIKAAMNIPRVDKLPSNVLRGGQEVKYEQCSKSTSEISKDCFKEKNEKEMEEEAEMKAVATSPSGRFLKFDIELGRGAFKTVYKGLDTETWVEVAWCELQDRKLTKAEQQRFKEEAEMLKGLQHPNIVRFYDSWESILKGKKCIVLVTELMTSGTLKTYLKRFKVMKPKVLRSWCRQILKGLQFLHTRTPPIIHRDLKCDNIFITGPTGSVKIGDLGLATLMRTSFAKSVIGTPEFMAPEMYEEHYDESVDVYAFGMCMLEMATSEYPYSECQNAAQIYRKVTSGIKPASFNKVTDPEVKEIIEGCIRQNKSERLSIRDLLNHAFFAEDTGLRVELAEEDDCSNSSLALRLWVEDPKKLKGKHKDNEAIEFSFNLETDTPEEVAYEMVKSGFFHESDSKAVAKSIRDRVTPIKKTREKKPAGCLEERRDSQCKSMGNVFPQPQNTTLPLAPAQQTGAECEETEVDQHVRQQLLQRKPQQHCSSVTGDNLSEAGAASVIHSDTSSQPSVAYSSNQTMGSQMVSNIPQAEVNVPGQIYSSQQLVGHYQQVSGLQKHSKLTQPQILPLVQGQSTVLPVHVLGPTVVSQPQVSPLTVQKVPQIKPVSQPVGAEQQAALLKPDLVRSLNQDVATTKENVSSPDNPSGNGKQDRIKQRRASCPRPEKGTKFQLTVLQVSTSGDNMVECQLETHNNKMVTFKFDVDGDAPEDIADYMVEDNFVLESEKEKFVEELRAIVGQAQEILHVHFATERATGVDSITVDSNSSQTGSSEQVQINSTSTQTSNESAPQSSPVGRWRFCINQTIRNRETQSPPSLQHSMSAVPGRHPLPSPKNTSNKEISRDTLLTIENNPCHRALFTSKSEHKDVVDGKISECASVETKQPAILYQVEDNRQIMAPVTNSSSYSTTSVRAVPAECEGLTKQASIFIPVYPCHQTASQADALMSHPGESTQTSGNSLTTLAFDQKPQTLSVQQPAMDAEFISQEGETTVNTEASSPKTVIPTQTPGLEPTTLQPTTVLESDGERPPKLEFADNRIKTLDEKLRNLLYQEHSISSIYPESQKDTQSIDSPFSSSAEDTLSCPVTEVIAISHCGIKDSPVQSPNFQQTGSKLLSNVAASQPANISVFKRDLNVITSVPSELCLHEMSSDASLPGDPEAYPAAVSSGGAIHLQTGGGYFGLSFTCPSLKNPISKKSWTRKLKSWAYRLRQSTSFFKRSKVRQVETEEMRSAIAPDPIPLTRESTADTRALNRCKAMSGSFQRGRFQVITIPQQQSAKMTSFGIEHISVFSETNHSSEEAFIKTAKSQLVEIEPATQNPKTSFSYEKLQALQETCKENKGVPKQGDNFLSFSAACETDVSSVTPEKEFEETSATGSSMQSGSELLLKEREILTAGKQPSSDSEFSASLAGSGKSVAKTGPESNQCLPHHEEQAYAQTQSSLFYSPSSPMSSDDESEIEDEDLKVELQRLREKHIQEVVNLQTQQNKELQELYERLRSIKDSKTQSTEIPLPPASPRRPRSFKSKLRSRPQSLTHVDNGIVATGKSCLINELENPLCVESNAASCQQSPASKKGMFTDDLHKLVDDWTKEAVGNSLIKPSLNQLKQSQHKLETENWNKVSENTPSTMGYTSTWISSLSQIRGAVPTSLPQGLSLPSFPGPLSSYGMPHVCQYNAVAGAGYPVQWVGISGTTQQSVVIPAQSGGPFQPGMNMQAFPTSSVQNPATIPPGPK
measurement protocol: radiometric filter-binding kinase assay, Kinase HotSpot
protocol conditions: compound 0.5 µM; ATP 10 µM
Recorded residual activity, one value per entry.

Record excerpt, results attached:
smiles string: Fc1ccc(-c2nc3n(c2-c2ccncc2)CCS3)cc1
experimental endpoint: residual activity
result: 105%
//
smiles string: N#C/C(=C\c1ccc(O)c(O)c1)C(=O)NCc1ccccc1
experimental endpoint: residual activity
result: 95%
//
smiles string: Cc1cccc(-c2nc(C(C)(C)C)[nH]c2-c2ccc3c(c2)OCO3)n1
experimental endpoint: residual activity
result: 94.1%
//
smiles string: Ic1cccc(CSc2nnc(-c3ccncc3)o2)c1
experimental endpoint: residual activity
result: 101%

Give me measured residual activity, please, for this molecule: `COc1ccc2c(c1)/C(=C/c1cnc[nH]1)C(O)=N2`
88.5%

Give me measured residual activity, please, for this molecule: `O=C1Nc2ccc(Br)cc2/C1=C\c1cc2c([nH]1)CCCC2`
93.8%

Give me measured residual activity, please, for this molecule: `COc1cc2ncnc(Nc3ccc(OCc4ccccc4)cc3)c2cc1OC`
90.8%

Give me measured residual activity, please, for this molecule: `COc1ccc2c(c1)c(C1=C(c3c[nH]c4ccccc34)C(=O)NC1=O)cn2CCCN(C)C`
92%

Give me measured residual activity, please, for this molecule: `CC(C)(C)c1cc(C=C(C#N)C#N)cc(Br)c1O`
106%

Give me measured residual activity, please, for this molecule: `Cc1nc(-c2ccccc2)c(-c2ccncc2)o1`
106%

Give me measured residual activity, please, for this molecule: `COc1ccc(Cl)cc1NC(=O)Nc1cc(C)nc2ccccc12`
99.9%

Give me measured residual activity, please, for this molecule: `CN(C)c1ccc(/C=C2\C(=O)Nc3ccccc32)cc1`
98.1%

Give me measured residual activity, please, for this molecule: `O=C1c2ccccc2-c2nc3nnnn3nc21`
116%

Give me measured residual activity, please, for this molecule: `Cc1cncc2cccc(S(=O)(=O)N3CCCN(C(=O)CN)C[C@H]3C)c12`
97.3%

Give me measured residual activity, please, for this molecule: `NC(=O)c1cccc(-c2cc(Nc3ccc(OC(F)(F)F)cc3)ncn2)c1`
105%

Give me measured residual activity, please, for this molecule: `N#Cc1c[nH]c2c[nH]/c(=N\Cc3cccnc3)cc2/c1=N\c1ccc(F)c(Cl)c1`
92.4%

Give me measured residual activity, please, for this molecule: `O=C(c1cc2cc(O)ccc2[nH]1)c1cc2cc(O)ccc2[nH]1`
74.6%

Give me measured residual activity, please, for this molecule: `CO[C@@H]1[C@H](N(C)C(=O)c2ccccc2)C[C@H]2O[C@]1(C)n1c3ccccc3c3c4c(c5c6ccccc6n2c5c31)C(=O)NC4`
91.4%

Give me measured residual activity, please, for this molecule: `CS(=O)(=O)CCNCc1ccc(-c2ccc3ncnc(Nc4ccc(OCc5cccc(F)c5)c(Cl)c4)c3c2)o1`
104%

Give me measured residual activity, please, for this molecule: `O=C1C(Cl)=C(N2C(=O)CCC2=O)C(=O)c2ccccc21`
96.4%

Give me measured residual activity, please, for this molecule: `CN(C)CCCn1cc(C2=C(c3c[nH]c4ccccc34)C(=O)NC2=O)c2ccccc21`
98.4%

Give me measured residual activity, please, for this molecule: `COc1ccc(S(=O)(=O)N(CCO)c2ccccc2CN(C)C/C=C/c2ccc(Cl)cc2)cc1`
99.4%

---

test target: PHKG2 (human) (UniProt P15735)
Sequence (P15735 whole entry, looked up): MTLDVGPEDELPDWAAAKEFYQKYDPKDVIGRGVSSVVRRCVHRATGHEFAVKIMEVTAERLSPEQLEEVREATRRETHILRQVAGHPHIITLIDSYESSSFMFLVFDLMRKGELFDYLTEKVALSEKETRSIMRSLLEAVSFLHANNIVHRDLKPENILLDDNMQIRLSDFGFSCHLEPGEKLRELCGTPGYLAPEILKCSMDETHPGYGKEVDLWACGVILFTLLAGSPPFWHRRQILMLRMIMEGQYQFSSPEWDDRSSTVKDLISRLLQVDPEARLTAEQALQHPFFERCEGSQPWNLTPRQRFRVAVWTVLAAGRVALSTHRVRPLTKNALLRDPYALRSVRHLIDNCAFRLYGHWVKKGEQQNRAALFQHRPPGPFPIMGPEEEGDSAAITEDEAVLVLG
measurement protocol: radiometric filter-binding kinase assay, Kinase HotSpot
protocol conditions: compound 0.5 µM; ATP 10 µM
experimental endpoint: residual activity (%)
Provide the reading as a plain figure in %.

Record excerpt, results attached:
smiles string: NC(=O)c1cccc(-c2cc(Nc3ccc(OC(F)(F)F)cc3)ncn2)c1
quantitative readout: 103

smiles string: CN(C)S(=O)(=O)c1ccc2c(c1)/C(=C/c1cc3c([nH]1)CCCC3)C(=O)N2
quantitative readout: 78.8

smiles string: O=C(c1cc2cc(O)ccc2[nH]1)c1cc2cc(O)ccc2[nH]1
quantitative readout: 105

smiles string: O=C1c2ccccc2-c2nc3nnnn3nc21
quantitative readout: 96.1

smiles string: C[C@@H]1CCN(C(=O)CC#N)C[C@@H]1N(C)c1ncnc2[nH]ccc12
quantitative readout: 98.6

Attention now turns to another entry.
Give me measured residual activity, please, for this compound: `CN(C)c1ccc(/C=C2\C(=O)Nc3ccccc32)cc1`
95.9

---

Recorded residual activity, one value per entry.
test target: PLK3 (human) (UniProt Q9H4B4)
Sequence (Q9H4B4 whole entry, looked up): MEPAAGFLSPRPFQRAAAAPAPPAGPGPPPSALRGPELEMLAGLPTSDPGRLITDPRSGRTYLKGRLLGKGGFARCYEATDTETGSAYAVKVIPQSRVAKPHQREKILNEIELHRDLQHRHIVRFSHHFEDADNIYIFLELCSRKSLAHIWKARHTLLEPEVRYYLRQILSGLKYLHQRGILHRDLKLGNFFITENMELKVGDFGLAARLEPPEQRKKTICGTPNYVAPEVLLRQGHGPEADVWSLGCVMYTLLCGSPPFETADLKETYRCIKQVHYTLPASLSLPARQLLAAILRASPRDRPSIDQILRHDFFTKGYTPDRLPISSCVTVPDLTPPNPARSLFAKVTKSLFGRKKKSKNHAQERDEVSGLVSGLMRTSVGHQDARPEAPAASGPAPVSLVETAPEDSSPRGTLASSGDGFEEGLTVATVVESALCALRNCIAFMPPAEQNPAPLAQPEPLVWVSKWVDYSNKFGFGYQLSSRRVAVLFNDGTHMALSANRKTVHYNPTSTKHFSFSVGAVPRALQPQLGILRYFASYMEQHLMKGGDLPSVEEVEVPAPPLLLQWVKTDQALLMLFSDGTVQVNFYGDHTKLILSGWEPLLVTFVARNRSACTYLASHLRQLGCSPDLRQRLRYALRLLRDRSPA
measurement protocol: radiometric filter-binding kinase assay, Kinase HotSpot
protocol conditions: compound 0.5 µM; ATP 10 µM
Provide the reading as a plain figure in %.

Consider the molecule `c1ccc2c(-c3ccncc3)c[nH]c2c1` tested on PLK3 (human) (UniProt Q9H4B4); state its residual activity.
95.3

Consider the molecule `CC(C)(C)c1cc(C=C(C#N)C#N)cc(Br)c1O` tested on PLK3 (human) (UniProt Q9H4B4); state its residual activity.
94.6

Consider the molecule `Fc1ccc(-c2nc3n(c2-c2ccncc2)CCS3)cc1` tested on PLK3 (human) (UniProt Q9H4B4); state its residual activity.
97.8

Consider the molecule `CCCCc1c(-c2ccc(OC)cc2)[nH]c2nccnc12` tested on PLK3 (human) (UniProt Q9H4B4); state its residual activity.
91.5

Consider the molecule `Ic1cccc(CSc2nnc(-c3ccncc3)o2)c1` tested on PLK3 (human) (UniProt Q9H4B4); state its residual activity.
96.1

Consider the molecule `COc1ccc(Cl)cc1NC(=O)Nc1cc(C)nc2ccccc12` tested on PLK3 (human) (UniProt Q9H4B4); state its residual activity.
100

---

Recorded residual activity, one value per entry.
test target: EPHA5 (human)
measurement protocol: radiometric filter-binding kinase assay, Kinase HotSpot
protocol conditions: compound 0.5 µM; ATP 10 µM
Provide the reading as a plain figure in %.

Record excerpt, results attached:
smiles string: CN(C)CCCn1cc(C2=C(c3c[nH]c4ccccc34)C(=O)NC2=O)c2ccccc21
units symbol: %
residual activity: 92
//
smiles string: O=C1NC(=O)c2c1c1c3ccccc3[nH]c1n1cncc21
units symbol: %
residual activity: 92
//
smiles string: O=C1Nc2ccc(Br)cc2/C1=C\c1cc2c([nH]1)CCCC2
units symbol: %
residual activity: 91.3
//
smiles string: CS(=O)(=O)CCNCc1ccc(-c2ccc3ncnc(Nc4ccc(OCc5cccc(F)c5)c(Cl)c4)c3c2)o1
units symbol: %
residual activity: 103
//
smiles string: CCCCc1c(-c2ccc(OC)cc2)[nH]c2nccnc12
units symbol: %
residual activity: 91.6

Give me measured residual activity, please, for this compound: `O=C(c1cc2cc(O)ccc2[nH]1)c1cc2cc(O)ccc2[nH]1`
100

Give me measured residual activity, please, for this compound: `Cc1cccc(-c2nc(C(C)(C)C)[nH]c2-c2ccc3c(c2)OCO3)n1`
95.6

Give me measured residual activity, please, for this compound: `c1ccc2c(-c3ccncc3)c[nH]c2c1`
99.4

---

Recorded residual activity, one value per entry.
test target: UniProt:O15146
Sequence (O15146 whole entry, looked up): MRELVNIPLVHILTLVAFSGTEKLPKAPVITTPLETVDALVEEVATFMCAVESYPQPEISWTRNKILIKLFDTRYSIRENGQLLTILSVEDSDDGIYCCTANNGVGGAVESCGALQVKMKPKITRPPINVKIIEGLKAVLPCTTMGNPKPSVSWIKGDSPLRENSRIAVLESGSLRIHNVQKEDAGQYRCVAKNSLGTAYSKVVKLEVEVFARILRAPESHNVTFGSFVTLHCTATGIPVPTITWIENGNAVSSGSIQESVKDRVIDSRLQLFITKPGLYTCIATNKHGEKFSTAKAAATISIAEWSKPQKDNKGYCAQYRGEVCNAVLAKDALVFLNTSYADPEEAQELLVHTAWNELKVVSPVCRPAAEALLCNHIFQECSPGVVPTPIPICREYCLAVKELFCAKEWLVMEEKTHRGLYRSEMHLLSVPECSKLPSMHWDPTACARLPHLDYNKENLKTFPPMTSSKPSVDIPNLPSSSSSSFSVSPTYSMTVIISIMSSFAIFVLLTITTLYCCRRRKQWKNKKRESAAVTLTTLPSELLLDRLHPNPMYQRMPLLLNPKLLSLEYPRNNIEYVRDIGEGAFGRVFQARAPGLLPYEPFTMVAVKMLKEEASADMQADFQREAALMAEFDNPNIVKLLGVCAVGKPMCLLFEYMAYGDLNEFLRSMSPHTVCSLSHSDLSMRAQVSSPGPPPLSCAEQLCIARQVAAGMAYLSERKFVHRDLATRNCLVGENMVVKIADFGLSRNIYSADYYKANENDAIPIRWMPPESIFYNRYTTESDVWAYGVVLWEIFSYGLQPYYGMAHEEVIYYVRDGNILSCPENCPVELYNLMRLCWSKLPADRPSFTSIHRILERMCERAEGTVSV
measurement protocol: radiometric filter-binding kinase assay, Kinase HotSpot
protocol conditions: compound 0.5 µM; ATP 10 µM
Provide the reading as a plain figure in %.

smiles string: COc1ccc2c(c1)c(C1=C(c3c[nH]c4ccccc34)C(=O)NC1=O)cn2CCCN(C)C
test target: UniProt:O15146
units symbol: %
quantitative readout: 53.5

Give me measured residual activity, please, for this compound: `CCCCc1c(-c2ccc(OC)cc2)[nH]c2nccnc12`
95.4

Give me measured residual activity, please, for this compound: `Cc1cncc2cccc(S(=O)(=O)N3CCCN(C(=O)CN)C[C@H]3C)c12`
88.7

Give me measured residual activity, please, for this compound: `O=C1NC(=O)c2c1c1c3ccccc3[nH]c1n1cncc21`
54.4

---

Recorded residual activity, one value per entry.
test target: SRMS (human)
measurement protocol: radiometric filter-binding kinase assay, Kinase HotSpot
protocol conditions: compound 0.5 µM; ATP 10 µM
Provide the reading as a plain figure in %.

Give me measured residual activity, please, for this molecule: `COc1ccc2c(c1)c(C1=C(c3c[nH]c4ccccc34)C(=O)NC1=O)cn2CCCN(C)C`
95.9

Give me measured residual activity, please, for this molecule: `CO[C@@H]1[C@H](N(C)C(=O)c2ccccc2)C[C@H]2O[C@]1(C)n1c3ccccc3c3c4c(c5c6ccccc6n2c5c31)C(=O)NC4`
97.6

Give me measured residual activity, please, for this molecule: `N#Cc1c[nH]c2c[nH]/c(=N\Cc3cccnc3)cc2/c1=N\c1ccc(F)c(Cl)c1`
104

Give me measured residual activity, please, for this molecule: `Cn1c2ccccc2c2c3c(c4c5ccccc5n(CCC#N)c4c21)CNC3=O`
96.6

---

test target: PIM3 (human)
measurement protocol: radiometric filter-binding kinase assay, Kinase HotSpot
protocol conditions: compound 0.5 µM; ATP 10 µM
experimental endpoint: residual activity (%)
Provide the reading as a plain figure in %.

smiles string: CO[C@@H]1[C@H](N(C)C(=O)c2ccccc2)C[C@H]2O[C@]1(C)n1c3ccccc3c3c4c(c5c6ccccc6n2c5c31)C(=O)NC4
residual activity [%]: 60.8

smiles string: O=C1NC(=O)c2c1c1c3ccccc3[nH]c1n1cncc21
residual activity [%]: 4.48

smiles string: Cn1c2ccccc2c2c3c(c4c5ccccc5n(CCC#N)c4c21)CNC3=O
residual activity [%]: 17.3

Give me measured residual activity, please, for this compound: `COc1cc2ncnc(Nc3ccc(OCc4ccccc4)cc3)c2cc1OC`
119

Give me measured residual activity, please, for this compound: `c1ccc2c(-c3ccncc3)c[nH]c2c1`
103
